Catalogue of z-score of subpopulation abundance readings, one per entry.
# Test system: Saccharomyces cerevisiae BY4741 SeMeCo community
# assay-overview: z-score of subpopulation abundance vs DMSO median, subpopulation auxotrophic for LUM; higher = larger share of this subpopulation than in DMSO controls
# run-parameters: 10 µM; 24 h; SM minimal medium; subpopulation (auxotrophy): LUM
Counter-ions that a name gives are not always drawn.
result-type: z-score of subpopulation abundance

compound	result-type	readout-number
C[C@@H]1O[C@@H](O[C@H]2C[C@@H](O)[C@]3(CO)[C@H]4[C@H](O)C[C@]5(C)[C@@H](C6=CC(=O)OC6)CC[C@]5(O)[C@@H]4CC[C@]3(O)C2)[C@H](O)[C@H](O)[C@H]1O [Ouabain]	z-score of subpopulation abundance	-0.83
CC(C)(O)C(Cl)(Cl)Cl [Chlorobutanol]	z-score of subpopulation abundance	0.26
C[C@@H]1CC[C@H]2[C@@H](C)C(=O)O[C@@H]3O[C@@]4(C)CC[C@@H]1[C@]32OO4 [Artemisinin]	z-score of subpopulation abundance	-0.97
CN(C)C(=O)Oc1cccc([N+](C)(C)C)c1 [Neostigmine Bromide]	z-score of subpopulation abundance	0.02
CC[N+](C)(CC)CCOC(=O)C(O)(c1ccccc1)c1ccccc1 [Methylbenactyzine Bromide]	z-score of subpopulation abundance	-1.06
NC(=O)CN1CCCC1=O [Piracetam]	z-score of subpopulation abundance	2.09
CC[C@H]1CN2CC[C@]3(C(=O)Nc4ccccc43)[C@@H]2C[C@@H]1/C(=C\OC)C(=O)OC [Rhynchophylline]	z-score of subpopulation abundance	-0.36
CN(C)[C@@H]1C(=O)C(C(N)=O)=C(O)[C@@]2(O)C(=O)C3=C(O)c4c(O)cccc4[C@@](C)(O)[C@H]3[C@H](O)[C@@H]12 [Oxytetracycline (Terramycin)]	z-score of subpopulation abundance	0.18
C=CCN1C[C@H](C(=O)N(CCCN(C)C)C(=O)NCC)C[C@@H]2c3cccc4[nH]cc(c34)C[C@H]21 [Cabergoline]	z-score of subpopulation abundance	0.18
CC(C)N(CCC(C(N)=O)(c1ccccc1)c1ccccn1)C(C)C (stereo not given) [Disopyramide]	z-score of subpopulation abundance	0.92
NCCc1c[nH]c2ccc(O)cc12 [Serotonin HCl]	z-score of subpopulation abundance	-0.88
COc1ccc(C=O)cc1 [p-Anisaldehyde]	z-score of subpopulation abundance	-0.69
C=C(C)[C@H]1Cc2c(ccc3c2O[C@@H]2COc4cc(OC)c(OC)cc4[C@@H]2C3=O)O1 [Rotenone (Barbasco)]	z-score of subpopulation abundance	-0.01
CC[C@@H](C(N)=O)N1CCCC1=O [Levetiracetam]	z-score of subpopulation abundance	-0.55
CCOC(=O)Nc1ccc(NCc2ccc(F)cc2)cc1N [Retigabine]	z-score of subpopulation abundance	-0.25
CC1(C)SC2C(N)C(=O)N2C1C(=O)O (stereo not given) [6-Aminopenicillanic acid]	z-score of subpopulation abundance	-0.93
COc1cc2c(cc1OC)C1CC(=O)C(CC(C)C)CN1CC2 (stereo not given) [Tetrabenazine (Xenazine)]	z-score of subpopulation abundance	0.67
CCN(CC)CCOC(=O)C(O)(c1ccccc1)c1ccccc1 [Benactyzine hydrochloride]	z-score of subpopulation abundance	-0.06
COc1ccc(C(CN(C)C)C2(O)CCCCC2)cc1 (stereo not given) [Venlafaxine HCl]	z-score of subpopulation abundance	1.02
CCN1CC2(OC(=O)c3ccccc3NC(C)=O)CCC(OC)C34C1C(CC23)C1(O)CC(OC)C2CC4C1(O)C2OC (stereo not given) [Lappaconitine]	z-score of subpopulation abundance	0.98
CC[C@@]1(O)C(=O)OCc2c1cc1n(c2=O)Cc2cc3ccccc3nc2-1 [Camptothecin]	z-score of subpopulation abundance	-0.25
CC(=O)O[C@H]1C[C@@H]2CC[C@@H]3[C@H](CC[C@@]4(C)[C@H]3C[C@H]([N+]3(C)CCCCC3)[C@@H]4OC(C)=O)[C@@]2(C)C[C@@H]1[N+]1(C)CCCCC1 [Pancuronium dibromide]	z-score of subpopulation abundance	-0.96
CN(C)[C@@H]1C(=O)C(C(N)=O)=C(O)[C@@]2(O)C(=O)C3=C(O)c4c(O)cccc4[C@@](C)(O)[C@H]3C[C@@H]12 [Tetracycline HCl]	z-score of subpopulation abundance	-0.52
C#C[C@]1(O)C=C[C@H]2[C@@H]3CCC4=CC(=O)CC[C@@H]4[C@H]3CC[C@@]21CC [Gestodene]	z-score of subpopulation abundance	0.24
CN1c2ccccc2C(NCCCCCCC(=O)O)c2ccc(Cl)cc2S1(=O)=O (stereo not given) [Tianeptine sodium]	z-score of subpopulation abundance	0.15

meta.source: the supplement of paper PMC8975748
